Origin of measurements: the supplement of paper PMC6757056

B1: library; a variant is named by its letters at N, in order (parent)
chain: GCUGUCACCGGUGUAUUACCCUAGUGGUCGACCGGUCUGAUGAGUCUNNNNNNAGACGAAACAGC

# Variants of: B1
# protocol-description: FACS-Seq fitted mean relative fluorescence mCherry/BFP without ligand (log10 relative fluorescence); ligand: hypoxanthine (xanthine aptamer); higher = higher reporter protein expression
# measurement-conditions: HEK293T, ligand present: no
Classify as follows. Reported FACS-Seq fitted mean (log10) greater than or equal to 0.1: 1.0. Reported FACS-Seq fitted mean (log10) below: 0.0.

{"columns": ["variant-string", "class"],
 "data": [
  ["GAGAGA", 1.0],
  ["UCGAGA", 0.0],
  ["ACGCAA", 1.0],
  ["GUUUCC", 1.0],
  ["CUUAAC", 1.0],
  ["AAAGUG", 1.0],
  ["AUAGGG", 0.0],
  ["GUGGGA", 0.0],
  ["GGCAAU", 0.0],
  ["GGAGUG", 1.0]
]}
